Molecular target: human recombinant ETA receptors (Homo sapiens, UniProt P25101)
Sequence (P25101 21-427): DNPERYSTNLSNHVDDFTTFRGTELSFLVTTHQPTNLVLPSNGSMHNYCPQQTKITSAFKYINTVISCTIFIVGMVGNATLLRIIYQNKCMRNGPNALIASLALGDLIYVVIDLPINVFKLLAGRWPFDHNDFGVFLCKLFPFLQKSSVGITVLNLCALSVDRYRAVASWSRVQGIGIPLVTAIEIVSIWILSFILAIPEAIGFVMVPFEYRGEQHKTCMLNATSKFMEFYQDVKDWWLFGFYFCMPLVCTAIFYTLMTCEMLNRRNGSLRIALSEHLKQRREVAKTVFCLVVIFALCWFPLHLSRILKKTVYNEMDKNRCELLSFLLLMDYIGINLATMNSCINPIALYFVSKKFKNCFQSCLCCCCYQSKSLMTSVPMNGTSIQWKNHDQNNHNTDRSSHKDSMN
Test: Inhibition of [125I]ET-1 binding to membranes from CHO cells carrying human ETA receptors
pIC50: −log10 of the molar value.
Tick 1 if pIC50 is 8 or greater. Tick -1 if pIC50 is less than 8.

Example entries begin here.
- chemical-string: "COc1ccccc1Oc1c(NS(=O)(=O)Cc2ccc(C)cc2)nc(-c2ccncc2)nc1OCCOc1ncc(Br)cn1"
  classification: -1
- chemical-string: "Cc1ccc(-c2c(NS(=O)(=O)CCc3cccs3)ncnc2OCCOc2ncc(Br)cn2)cc1"
  classification: 1
- chemical-string: "Cc1ccc(-c2c(NS(=O)(=O)CCc3ccccc3)ncnc2OCCOc2ncc(Br)cn2)cc1"
  classification: 1

query: Could you please find out whether Cc1ccc(-c2c(NS(=O)(=O)CCc3ccccc3)ncnc2OCCOc2ccc(C(F)(F)F)cn2)cc1 has pIC50 that meets 8 or exceeds it?
result: -1

query: Could you please find out whether Cc1ccc(-c2c(NS(=O)(=O)CCc3ccccc3)nc(-c3ncccn3)nc2OCCOc2ncc(Cl)cn2)cc1 has pIC50 that meets 8 or exceeds it?
result: 1

query: Could you please find out whether O=S(=O)(CCc1cccs1)Nc1ncnc(OCCOc2ncc(Br)cn2)c1-c1ccc(Cl)cc1 has pIC50 that meets 8 or exceeds it?
result: 1

====

Each entry below carries its reported pIC50.
Target: human recombinant ETB receptors (Homo sapiens, UniProt P24530)
Sequence (P24530 27-442): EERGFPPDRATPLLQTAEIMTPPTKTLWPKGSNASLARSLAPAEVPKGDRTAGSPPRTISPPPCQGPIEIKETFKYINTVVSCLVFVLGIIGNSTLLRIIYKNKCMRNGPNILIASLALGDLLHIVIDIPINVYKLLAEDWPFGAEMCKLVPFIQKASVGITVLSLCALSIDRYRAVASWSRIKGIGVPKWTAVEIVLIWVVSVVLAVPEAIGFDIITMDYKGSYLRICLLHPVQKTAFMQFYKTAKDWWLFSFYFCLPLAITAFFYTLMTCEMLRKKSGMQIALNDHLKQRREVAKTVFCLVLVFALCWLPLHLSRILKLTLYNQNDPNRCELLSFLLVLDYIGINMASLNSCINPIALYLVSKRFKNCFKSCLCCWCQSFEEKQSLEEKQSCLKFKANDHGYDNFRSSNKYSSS
Test: Inhibition of [125I]ET-1 binding to membranes from CHO cells carrying human ETB receptors
Note on units: pIC50 is unitless, being -log10 of a concentration expressed in mol/L.

Before answering, review these 6 worked examples.
- molecule: "COc1cnc(OCCOc2ncnc(NS(=O)(=O)CCc3ccccc3)c2Oc2cccc(OC)c2)nc1 [Example 47]"
  pIC50: 5.57
- molecule: "COc1ccccc1Oc1c(NS(=O)(=O)CCc2ccccc2)nc(N2CCOCC2)nc1OCCOc1ncc(SC)cn1 [Example 39]"
  pIC50: 6.58
- molecule: "Cc1ccc(-c2c(NS(=O)(=O)CCc3ccccc3)ncnc2OCCOc2ncc(Br)cn2)cc1C [Example 19]"
  pIC50: 5.71
- molecule: "O=S(=O)(CCc1cccs1)Nc1ncnc(OCCOc2ncc(Br)cn2)c1-c1ccc(Cl)cc1 [Example 52]"
  pIC50: 5.75
- molecule: "Cc1ccc(-c2c(NS(=O)(=O)CCc3ccccc3)ncnc2OCCOc2ncc(Br)cn2)cc1 [Example 7]"
  pIC50: 5.48
- molecule: "Cc1ccc(-c2c(NS(=O)(=O)CCc3ccccc3)nc(-c3ncccn3)nc2OCCOc2ncc(Br)cn2)cc1 [Example 14]"
  pIC50: 5.65

query: I'm curious: which pIC50 was measured for Cc1ccc(-c2c(NS(=O)(=O)CCc3ccccc3)ncnc2OCCOc2ncccn2)cc1 [Example 1] tested on human recombinant ETB receptors (Homo sapiens, UniProt P24530)?
result: 5.18

query: I'm curious: which pIC50 was measured for Cc1ccc(-c2c(NS(=O)(=O)CCc3ccccc3)ncnc2OCCOc2ccc(C(F)(F)F)cn2)cc1 [Example 2] tested on human recombinant ETB receptors (Homo sapiens, UniProt P24530)?
result: 6.05

query: I'm curious: which pIC50 was measured for Cc1ccc(-c2c(NS(=O)(=O)CCc3cccs3)ncnc2OCCOc2ncc(Br)cn2)cc1 [Example 49] tested on human recombinant ETB receptors (Homo sapiens, UniProt P24530)?
result: 5.60

query: I'm curious: which pIC50 was measured for Cc1ccc(-c2c(NS(=O)(=O)CCc3ccccc3)nc(-c3ccncc3)nc2OCCOc2ncc(Br)cn2)cc1 [Example 10] tested on human recombinant ETB receptors (Homo sapiens, UniProt P24530)?
result: 5.62

====

molecular target: human recombinant ETA receptors (Homo sapiens, UniProt P25101); construct: expressed in transfected cells; host or cells: CHO cells; assay: Inhibition of [125I]ET-1 binding to membranes from CHO cells carrying human ETA receptors
assay-metric: pIC50
Note on units: pIC50 is unitless, being -log10 of a concentration expressed in mol/L.

Before answering, review these 6 worked examples.
- chemical-string: "Cc1ccc(-c2c(NS(=O)(=O)CCc3ccccc3)nc(-c3ccncc3)nc2OCCOc2ncc(Br)cn2)cc1"
  pIC50: 8.05
- chemical-string: "COc1cnc(OCCOc2ncnc(NS(=O)(=O)CCc3ccccc3)c2Oc2cccc(OC)c2)nc1"
  pIC50: 7.62
- chemical-string: "COc1ccccc1Oc1c(NS(=O)(=O)CCc2ccccc2)nc(N2CCOCC2)nc1OCCOc1ncc(SC)cn1"
  pIC50: 8.52
- chemical-string: "COc1ccccc1Oc1c(NS(=O)(=O)CCc2ccccc2)nc(-c2ncccn2)nc1OCCOc1ncc(Br)cn1"
  pIC50: 8.52
- chemical-string: "COc1cnc(OCCOc2nc(-c3ncccn3)nc(NS(=O)(=O)CCc3ccccc3)c2Oc2ccccc2OC)nc1"
  pIC50: 8.00
- chemical-string: "Cc1ccc(-c2c(NS(=O)(=O)CCc3ccccc3)nc(-c3ncccn3)nc2OCCOc2ncc(Br)cn2)cc1"
  pIC50: 8.22

query: Requested read-out: pIC50. Entry: COc1cccc(Oc2c(NS(=O)(=O)CCc3ccccc3)ncnc2OCCOc2ncc(Br)cn2)c1
result: 8.15

query: Requested read-out: pIC50. Entry: Cc1ccc(-c2c(NS(=O)(=O)CCc3ccccc3)ncnc2OCCOc2ncccn2)cc1
result: 7.57

query: Requested read-out: pIC50. Entry: Cc1ccc(-c2c(NS(=O)(=O)CCc3ccccc3)ncnc2OCCOc2ncc(Br)cn2)cc1C
result: 8.52

====

biological target: human recombinant ETB receptors (Homo sapiens, UniProt P24530); assay: Inhibition of [125I]ET-1 binding to membranes from CHO cells carrying human ETB receptors
assay-metric: IC50 (nM)
Use nM as the unit, but write only the number.

- chemical-string: "COc1ccccc1Oc1c(NS(=O)(=O)CCc2ccccn2)nc(-c2ccncc2)nc1OCCOc1ncc(Br)cn1"
  unit-symbol: "nM"
  IC50: 1140

query: I'm curious: which IC50 was measured for COc1cccc(Oc2c(NS(=O)(=O)CCc3ccccc3)ncnc2OCCOc2ncc(Br)cn2)c1 tested on human recombinant ETB receptors (Homo sapiens, UniProt P24530)?
result: 2360

query: I'm curious: which IC50 was measured for Cc1ccc(-c2c(NS(=O)(=O)CCc3ccccc3)nc(-c3ncccn3)nc2OCCOc2ncc(Cl)cn2)cc1 tested on human recombinant ETB receptors (Homo sapiens, UniProt P24530)?
result: 3680

FYI, the data here is from patent US7091201B2.
